# target-or-test-system: T1, cynomolgus monkey B7-H7 on the cell surface (cynomolgus monkey)
# T1 construct: whole, on cells; also called cyno B7-H7
# assay-overview: flow cytometry, HEK-293/cyno B7-H7 cells
endpoint: EC50 (nM)

[[record]]
binder = "PR003262 (antibody, human IgG1, kappa, V domains shown, Human IgG1; also called 77D5A4) VH: QVQLVESGGGVVQPGRSLRLSCAASGFTFSRYGIHWVRQAPGKGLEWVAVIWYNGRNKYYVDSVKGRFTISRDNSKNTLYLQMNSLRAEDTAVYYCARDGGYSYGPFDYWGQGTLVTVSS VL: EIVMTQSPATLSVSPGERATLSCRASQSFSNNLAWYQQKPGQAPRLLIYGASTRATGIPARFSGSGSGTEFTLTISSLQSEDFAVYYCHQYNIWPLTFGGGTKVEIKR"
quantitative_readout = 0.59

[[record]]
binder = "PR003265 (antibody, human IgG1, kappa, V domains shown, Human IgG1; also called 78G8B3) VH: QVQLVESGGGVVQPGRSLRLSCAASGFTFSTYGLHWVRQAPGKGLEWVAVIWYDESNEYYADSVKGRFTISRDNSKNTLYLQMNSLRAEDTALYYCARLAHDYGGTYFDYWGQGTLVTVSS VL: EIVMTQSPAILSVSPGERATLSCRASQSISYNLAWYQQKPGQAPRLLIYGASIRATGIPARFSGSGSGTDFTLTISSLQSEDFAVYYCQQYNNWPPWTFGQGTKVEIKR"
quantitative_readout = 0.711

[[record]]
binder = "PR003260 (antibody, human IgG1, kappa, V domains shown, Human IgG1; also called 70F3B1) VH: QVQLVESGGGVVQPGRSLRLPCAASGFTFSRYGMHWVRQAPGKGLEWVADIWYDGSKKYYADSVKGRFTISRDNSKNTLYLQMNSLRAEDTAVYFCTRDGGYSYGPFDYWGQGTLVTVSS VL: EIVMTQSPATLSVSPGERATLSCRASQSVSSNLAWYQQKPGQAPRLLIYYASTRAPGIPARFSGSESGTEFTLTISSLQSEDFAVYYCQQYNIWPYTFGQGTKLEIKR"
quantitative_readout = 0.588

[[record]]
binder = "PR003263 (antibody, human IgG1, kappa, V domains shown, Human IgG1; also called 77E6C4) VH: QVQLVESGGGVVQPGRSLRLSCAASGFTFSYYGLNWVRQAPGKGLEWVAVIWFDGTNKYYADSVKGRFTISRDDSKNTLYLQMNSLRAEDTAVYYCARGYGSGSYYNYVMDAWGQGASVTVSS VL: EIVMTQSPATLSVSPGERATLSCRASQSVSSNLAWYQQKPGQAPRLLIYGASTGATGIPARFSGSGSGTDFTLTISSLQSEDFAVYYCQQYYKWPLTFGGGTKVEIKR"
quantitative_readout = 0.556

